Tested on: Plasmodium falciparum
Test: GSK_TCMDC: Inhibition of Plasmodium falciparum 3D7 in whole erythrocytes, using parasite LDH activity as an index of growth.
Type: functional, organism-based
Conditions: Plasmodium falciparum, 3D7
Just so you know, the groups by XC50 go like this: lo = under 600 nM, med = from 600 nM up to 900 nM, hi = 900 nM and over

[
  {
    "compound": "Cc1cc(N[C@@H](CC(C)C)C(=O)NCc2cccs2)nc(NCCc2ccccc2)n1",
    "classAssignment": "hi"
  },
  {
    "compound": "Cc1cc(CNCCCCCCNCc2cccc([N+](=O)[O-])c2)ccc1O",
    "classAssignment": "med"
  },
  {
    "compound": "O=c1c2c([nH]c3cc(Cl)ccc13)CCCC2",
    "classAssignment": "med"
  },
  {
    "compound": "O=C(/C=C/c1ccc(Cl)c(Cl)c1)NCCCCCN1CCCN(C(=S)Nc2ccc(Cl)c(Cl)c2)CC1",
    "classAssignment": "med"
  },
  {
    "compound": "N#Cc1c(Cl)cccc1Oc1ccc(S(=O)(=O)N2CCC(CN3CCC(c4c[nH]c5ccccc45)CC3)CC2)cc1",
    "classAssignment": "med"
  }
]

Please report the category associated with "[O-][S+]1c2ccccc2Sc2ccccc21" , nothing else. lo

Please report the category associated with Cc1cc(NC(=O)c2ccco2)ccc1OC1CCN(Cc2ccc(F)cc2)C1 (stereo not given) , nothing else. med

Please report the category associated with CCCN1CCC2(CC1)NC(C(=O)NCCC(C)C)Cc1c2[nH]c2cc(Cl)ccc12 (stereo not given) , nothing else. hi

Please report the category associated with "CCC(=C(CC)c1ccc(O)c(CNC2CCCCC2)c1)c1ccc(O)c(CNC2CCCCC2)c1" , nothing else. lo

Please report the category associated with "O=C(Nc1cccc(CN2CCCN(Cc3cccc(Cl)c3)CC2)c1)c1ccc(Cl)c(Cl)c1" , nothing else. hi

Please report the category associated with "CC(=O)N[C@H](C(=O)Nc1ccc(-c2cccc(-c3nc4cccc(C)c4[nH]3)c2)cc1)C(C)C" , nothing else. hi

Please report the category associated with "COc1ccc(CNC(=N)Nc2nc(-c3ccc(OCCCn4ccnc4)cc3)cs2)cc1" , nothing else. lo

Please report the category associated with CCCC1N=C(N)N=C(N)N1c1ccc(C)c(C)c1 (stereo not given) , nothing else. lo
